- Procedure Details: physchem
- Setup Conditions: water, thermodynamic from solid
Readout: solubility

Lab book: solubility of CC/C=C\C/C=C\C/C=C\C/C=C\C/C=C\CCCC(=O)O [EPA, reference compound] noted as < 200 µg/mL
